# target or test system: UniProt Q5ZXE0
# Sequence (Q5ZXE0 21-233 limits assumed): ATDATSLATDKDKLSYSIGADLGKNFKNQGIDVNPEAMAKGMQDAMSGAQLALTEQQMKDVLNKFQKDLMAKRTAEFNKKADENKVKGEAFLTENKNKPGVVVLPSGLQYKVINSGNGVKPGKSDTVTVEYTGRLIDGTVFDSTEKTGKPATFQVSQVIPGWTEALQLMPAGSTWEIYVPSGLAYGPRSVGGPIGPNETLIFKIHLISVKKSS
# protocol summary: biochemical
# Type: binding
# conditions: read-out: Ki LpMip
Give pKi for every item shown.
In plain terms, pKi is the concentration in mol/L turned into minus its base-10 logarithm.

Inquiry: Which pKi reading was recorded for the molecule CC[C@H]1CN(Cc2ccccn2)C(=O)[C@@H]2CCC[C@H]1N2S(=O)(=O)c1ccc2ncsc2c1 [26a] ?
Reply text: 5.29

Inquiry: Same lookup for C=C[C@H]1CN(Cc2ccccn2)C(=O)[C@@H]2CCC[C@H]1N2S(=O)(=O)c1ccc2ncsc2c1 , please.
Reply text: 5.23

Inquiry: Same lookup for C=C[C@H]1CN(Cc2ccccn2)C(=O)[C@@H]2CCC[C@H]1N2S(=O)(=O)c1cc(Cl)cc(Cl)c1 , please.
Reply text: 5.87

----------
Give pKi for every item shown.
# target or test system: FKBP12.6 (Homo sapiens)
# Sequence (P68106 whole entry): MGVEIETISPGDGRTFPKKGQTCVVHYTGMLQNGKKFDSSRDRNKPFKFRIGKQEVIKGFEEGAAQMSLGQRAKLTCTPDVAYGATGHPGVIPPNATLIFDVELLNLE
# protocol summary: Binding affinity of ligands with large RA (E3-ligase CRBN, PEG linker)
# conditions: * = detection limit
In plain terms, pKi is the concentration in mol/L turned into minus its base-10 logarithm.

Inquiry: Which pKi reading was recorded for the molecule C=C[C@H]1CN([C@@H](C)c2cn(CCOCCOCCOCCOCCOCC(=O)Nc3cccc4c3C(=O)N(C3CCC(=O)NC3=O)C4=O)nn2)C(=O)[C@@H]2CCC[C@H]1N2S(=O)(=O)c1cc(Cl)cc(Cl)c1 (stereo partly shown) ?
Reply text: 8.82

Inquiry: Same lookup for C=C[C@H]1CN(Cc2cn(CCOCC(=O)Nc3cccc4c3C(=O)N(C3CCC(=O)NC3=O)C4=O)nn2)C(=O)[C@@H]2CCC[C@H]1N2S(=O)(=O)c1cc(Cl)cc(Cl)c1 (stereo partly shown) , please.
Reply text: 9.34

Inquiry: Same lookup for C=C[C@H]1CN([C@@H](C)c2cn(CCOCCOCCOCCOCC(=O)Nc3cccc4c3C(=O)N(C3CCC(=O)NC3=O)C4=O)nn2)C(=O)[C@@H]2CCC[C@H]1N2S(=O)(=O)c1cc(Cl)cc(Cl)c1 (stereo partly shown) , please.
Reply text: 8.43

Inquiry: Same lookup for C=C[C@H]1CN(Cc2cn(CCOCCOCCOCCOCC(=O)Nc3cccc4c3C(=O)N(C3CCC(=O)NC3=O)C4=O)nn2)C(=O)[C@@H]2CCC[C@H]1N2S(=O)(=O)c1cc(Cl)cc(Cl)c1 (stereo partly shown) , please.
Reply text: 7.72

Recorded values, source patent US20230126391A1.
